Biological target: Recombinant IKKα (Homo sapiens, UniProt O15111)
Construct: purchased Millipore, Dundee, UK
Sequence (O15111 1-745): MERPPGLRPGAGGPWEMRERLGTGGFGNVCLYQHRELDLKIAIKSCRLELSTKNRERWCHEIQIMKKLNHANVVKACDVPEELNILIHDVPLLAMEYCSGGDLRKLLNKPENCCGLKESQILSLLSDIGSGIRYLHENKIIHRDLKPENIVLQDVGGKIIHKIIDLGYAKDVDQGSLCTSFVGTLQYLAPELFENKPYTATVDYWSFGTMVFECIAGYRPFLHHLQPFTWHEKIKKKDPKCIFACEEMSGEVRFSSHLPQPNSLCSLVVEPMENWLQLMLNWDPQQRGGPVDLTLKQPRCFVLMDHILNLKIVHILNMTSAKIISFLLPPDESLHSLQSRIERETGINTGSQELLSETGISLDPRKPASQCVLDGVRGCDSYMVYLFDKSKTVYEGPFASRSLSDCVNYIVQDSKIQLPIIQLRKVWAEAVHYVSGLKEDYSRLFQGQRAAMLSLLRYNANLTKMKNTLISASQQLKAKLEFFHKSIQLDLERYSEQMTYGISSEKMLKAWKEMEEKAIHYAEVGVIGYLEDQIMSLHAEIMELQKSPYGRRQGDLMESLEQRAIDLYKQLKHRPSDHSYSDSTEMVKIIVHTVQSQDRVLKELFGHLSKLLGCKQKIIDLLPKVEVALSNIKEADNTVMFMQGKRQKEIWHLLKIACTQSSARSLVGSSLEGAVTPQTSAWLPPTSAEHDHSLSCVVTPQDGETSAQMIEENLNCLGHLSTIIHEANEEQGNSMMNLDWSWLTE
Assay: DELFIA IKKα kinase assay (apparent Ki, Cheng-Prusoff)
Assay type: biochemical
Conditions: non-italicised figure: DELFIA assay
# Ki per entry
Numeric only. Scale: nM

Look over these answered cases.
{"columns": ["Smiles input", "Reported result"],
 "data": [
  ["Nc1nccc(-c2ccc3[nH]nc(N)c3c2)c1C#CCCC(=O)c1ccccc1", 19],
  ["Nc1n[nH]c2ccc(-c3ccnc(NC(=O)Nc4cccc(OCc5ccc(F)cc5)c4)c3)cc12", 80],
  ["C#Cc1cc(-c2ccnc3[nH]ccc23)cc2c(N)n[nH]c12", 26],
  ["Nc1n[nH]c2ccc(-c3ccnc(NC4CCCCC4)c3)cc12", 571],
  ["Nc1n[nH]c2ccc(-c3ccnc(NCCN4CCCCC4)c3)cc12", 495],
  ["Nc1n[nH]c2ccc(-c3ccnc(NC(=O)Nc4cccc(OCc5ccccc5F)c4)c3)cc12", 76],
  ["CC(C)C#Cc1cc(-c2ccnc(N)c2)cc2c(N)n[nH]c12", 3],
  ["Nc1n[nH]c2ccc(-c3ccnc(NCCCCO)c3)cc12", 22]
]}

Input line: Entry under review: C[C@H]1CC[C@H](Nc2cc(-c3ccc4[nH]nc(N)c4c3)ccn2)CC1 . Reported Ki?
Output line: 170
